Parameter 'readout' = pIC50; parameter 'system' = Peroxisome proliferator-activated receptor gamma (Homo sapiens, UniProt P37231).
Sequence (P37231 whole entry): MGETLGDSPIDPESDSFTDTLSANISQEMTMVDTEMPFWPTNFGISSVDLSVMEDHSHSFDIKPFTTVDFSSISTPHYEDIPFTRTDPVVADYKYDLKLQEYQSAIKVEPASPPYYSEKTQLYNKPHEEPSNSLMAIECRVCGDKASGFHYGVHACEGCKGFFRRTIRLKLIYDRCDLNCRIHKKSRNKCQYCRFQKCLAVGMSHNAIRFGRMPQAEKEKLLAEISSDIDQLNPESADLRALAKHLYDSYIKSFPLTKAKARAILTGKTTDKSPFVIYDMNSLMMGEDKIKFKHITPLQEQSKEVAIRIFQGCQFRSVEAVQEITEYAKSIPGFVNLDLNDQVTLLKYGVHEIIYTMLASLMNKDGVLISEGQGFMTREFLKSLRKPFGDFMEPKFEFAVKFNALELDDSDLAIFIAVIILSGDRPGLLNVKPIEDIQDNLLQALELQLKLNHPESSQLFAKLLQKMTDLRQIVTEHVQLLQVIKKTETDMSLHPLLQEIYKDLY
Numbers only, as −log10 of the molar value.

| Record smiles | pIC50 |
| --- | --- |
| Cc1oc(-c2ccccc2)nc1CCOc1ccc(-c2nn(-c3ccccc3)nc2CC(=O)O)cc1 | 6.29 |
| Cc1oc(-c2ccccc2)nc1CCOc1ccc(Cc2cn(C)cc2C(=O)O)cc1 | 5.42 |
| Cc1oc(-c2ccccc2)nc1CCOc1cccc(Cc2nn(-c3ccccc3)cc2C(=O)O)c1 | 6.85 |
| Cc1oc(-c2ccccc2)nc1CCOc1ccc(-c2nn(-c3ccccc3)nc2C(=O)O)cc1 | 5.87 |
| Cc1oc(-c2ccccc2)nc1CCOc1cccc(Cc2cn(-c3ccccc3)cc2C(=O)O)c1 | 6.80 |

// each compound listed below needs its pIC50
1. Cc1oc(-c2ccccc2)nc1CCOc1cccc(Cc2cn(-c3ccccc3)nc2C(=O)O)c1
2. Cc1oc(-c2ccccc2)nc1CCOc1ccc(Cc2c(C(=O)O)nnn2-c2ccccc2)cc1

1. 7.15
2. 5.00

// each compound listed below needs its pIC50
1. Cc1oc(-c2ccccc2)nc1CCOc1cccc(Cc2c(C(=O)O)cnn2-c2ccccc2)c1
2. Cc1oc(-c2ccccc2)nc1CCOc1cccc(-c2nn(-c3ccccc3)nc2CC(=O)O)c1

1. 5.32
2. 7.47
